System: SNB-19 CNS
measurement.protocol: NCI-60 one-dose screen, 48 h
experimental.context: 10 µM unless noted
About 83,000 compounds went through this panel and 20% of them were active in at least one assay; those are over-represented in the sample as a whole. Calls of active or inactive are those of the source. How the source made its calls: active means growth percent below 10; inactive means the rest.
Outcomes: 1.0 (active), 0.0 (inactive)

compound: O=C(Nc1ccc(F)c(Cl)c1)Nc1ccc(Cl)c(Cl)c1
classification: 0.0

compound: COc1ccc(CCN2CCC(CN(C)Cc3cnn(-c4ccccc4)c3)CC2)cc1
classification: 0.0

compound: O=C(c1nc2ccccc2[nH]1)C1[C@@H](c2cccc(O)c2)C2CC3CCCCC3N2[C@@]12C(=O)Nc1cc(Cl)ccc12 (stereo partly specified)
classification: 0.0

compound: NC(CCl)=NCCC[C@H](N)C(=O)O
classification: 0.0

compound: O=Cc1c(OCc2cnnn2CC(=O)Nc2ccc(Cl)cc2)ccc2ccccc12
classification: 0.0

compound: c1ccc2cc3c(Nc4ccc(N5CCOCC5)cc4)ccnc3cc2c1
classification: 0.0

compound: Clc1ccc(Oc2ccc(Nc3ncnc4onc(-c5ccccc5)c34)cc2)c(Cl)c1
classification: 0.0

compound: CNCCNc1nc2ccccc2c2c(=O)c3cc(OC)ccc3sc12
classification: 0.0

compound: Cc1ccc(Cc2cnc(NC(=O)CN3C(=O)/C(=C\c4ccccc4)SC3=S)s2)cc1
classification: 0.0

compound: CCOC(=O)C1=C(C)c2ccc(OC)c(OC)c2C1
classification: 0.0

compound: N[C@@H](CC/[N+]([O-])=N/O)C(=O)O
classification: 0.0

compound: CCCC(c1nnnn1C1CCCCC1)N1CCN(C(=O)c2ccco2)CC1 (stereo unspecified)
classification: 0.0

compound: CCN1C(=O)N(CC)C2C1NN=c1s/c(=C3\C(=O)N(C(C)C)c4ccccc43)c(=O)n12 (stereo unspecified)
classification: 0.0

compound: COc1cc(NC(=O)CCSc2nc3ccccc3c(=O)n2CCc2ccccn2)cc(OC)c1OC
classification: 0.0

compound: CCCCN1CCN(c2ccc3nc(-c4ccc5nc(-c6ccc(OCC)cc6)[nH]c5c4)[nH]c3c2)CC1
classification: 0.0

compound: COc1ccc(-c2nc(-c3ccccn3)c(-c3ccccn3)n2CC(C)C)cc1OC1CCCC1
classification: 0.0

compound: Nc1nc(N)c2c(n1)NC1(C=C(O)c3ccccc31)C1=C(N2)c2ccccc2C1=O (stereo unspecified)
classification: 0.0

compound: CCOC(=O)c1c2c(c(C)n1Cc1ccc(OC)cc1)-c1oncc1CC2
classification: 0.0

compound: COc1ccc(/C=C2\CCC/C(=C\c3ccc(OC)c(OC)c3)C2=O)cc1OC
classification: 0.0

compound: CCCC(=O)CC(C)=O.CCCC(=O)CC(C)=O.[Cu]
classification: 0.0

compound: COc1c(B(O)O)cccc1-c1nc2ccc3[nH]ncc3c2c2c1C1CCC2C1 (stereo unspecified)
classification: 0.0

compound: COc1cc(/C=C2\CCC/C(=C\c3cc(CN4CCOCC4)c(O)c(OC)c3)C2=O)cc(CN2CCOCC2)c1O
classification: 0.0

compound: CCOc1cc(Cl)c(C(C)NC(=O)c2cccc(OC)c2)cc1OCC (stereo unspecified)
classification: 0.0

compound: O=c1oc2ccc(Br)cc2c(=O)n1-c1ccc(I)cc1F
classification: 0.0

compound: COc1cc(C2CC(c3ccc(Nc4nc(NCCO)nc(N5CCOCC5)n4)cc3)=NN2c2cc(Cl)cc(Cl)c2)cc(OC)c1OC (stereo unspecified)
classification: 0.0

compound: CN1C(=O)N(C)C2Nn3c(s/c(=C4\C(=O)N(CCc5ccccc5)c5ccccc54)c3=O)=NC21 (stereo unspecified)
classification: 0.0

compound: O=C(NC1C(O)OC(CO)C(O)C1O)NS(=O)(=O)c1ccc(Cl)cc1 (stereo unspecified)
classification: 0.0

compound: O=C(Nc1ccc(I)cc1F)c1cc(Cl)ccc1O
classification: 0.0

compound: c1ccc(-c2ccc(-c3nc4ccccc4[nH]3)cc2)cc1
classification: 0.0

compound: NC1C(N)C(N)C1N (stereo unspecified)
classification: 0.0

compound: COc1ccc(-c2c(-c3ccc(OC)c(O)c3)cnc3ncnn23)cc1
classification: 0.0

compound: COc1ccc(C2Nc3nc(OC)n(C)c(=O)c3N=C3c4ccccc4C(=O)C32)cc1 (stereo unspecified)
classification: 0.0

compound: O=c1cc(NC2CCN(CCCc3ccccc3)CC2)c2cc(Cl)ccc2o1
classification: 0.0

compound: O=C(Nc1ccccc1O)c1ccc(Oc2cccc(C(=O)Nc3ccccc3O)c2)cc1
classification: 0.0

compound: Cc1ccc2cc3c(N)c4c(C)ccc(C)c4nc3nc2c1
classification: 0.0

compound: Nc1ccc(-c2nc3cc(Oc4ccc(Oc5ccc6[nH]c(-c7ccc(N)cc7)nc6c5)cc4)ccc3[nH]2)cc1
classification: 0.0

compound: NCCOc1ccccc1/C=C1\c2ccccc2-c2ccc([N+](=O)[O-])cc21
classification: 0.0

compound: COC(=O)c1c2c(c(C)[n+]([O-])c1C)C(=O)C=C(NCc1ccc(F)c(F)c1)C2=O
classification: 1.0

compound: OC(CNC1CCCCC1)Cn1c2ccc(I)cc2c2cc(I)ccc21 (stereo unspecified)
classification: 0.0

compound: COc1cc(/C=C2\CCC/C(=C\c3cc(CN4CCCCC4)c(O)c(OC)c3)C2=O)cc(CN2CCCCC2)c1O
classification: 0.0

compound: COC(=O)C1=C(C)NC(C)=C(C(=O)OC)C(N2C(=O)CCC2=O)C1 (stereo unspecified)
classification: 0.0

----------
Listed below: growth values for each entry.
System: SW-620 colon
measurement.protocol: NCI-60 one-dose screen, 48 h (100 = growth as untreated, 0 = no growth, -100 = all killed)
experimental.context: 10 µM unless noted
Procedure: Growth inhibition of the SW-620 human tumor cell line is measured as a screen for anti-cancer activity. Cells are grown in 96 well plates and exposed to the test compound for 48 hours. Compounds are tested at a single concentration, which is 10^-5 M for most compounds. The reported endpoint is percent growth (GI% or GIPRCNT), where numbers from 0 - 100% represent growth inhibition, and numbers from -100% - 0 represent cell death. For example, a value of 40 represents 60% growth inhibition. […]
About 83,000 compounds went through this panel and 20% of them were active in at least one assay; those are over-represented in the sample as a whole. Active and inactive are the calls of the source. Rule for the calls: active = growth percent below 10; inactive = the rest.
quantity.name: growth

compound: O=S(=O)(c1ccccc1)n1cc2c(c1-c1ccccc1)CCc1sc(Nc3ccccc3)nc1-2
assay.value: 94.4% (inactive)
//
compound: CCOc1ccc(Nc2ccnc3cc(Cl)ccc23)cc1
assay.value: 14.5% (inactive)
//
compound: C1CCN(c2nc(N3CCCCC3)nc(N3CCOCC3)n2)CC1
assay.value: 103% (inactive)
//
compound: CC1(C)CC2(C)OC2C2(C1)N=NC(=Nc1ccccc1)O2 (stereo unspecified)
assay.value: 23% (inactive)
//
compound: COc1cc(/C=C/C(=O)N2c3ccccc3CC2C)c(OC)c2c1OCO2 (stereo unspecified)
assay.value: 93.8% (inactive)
//
compound: O=C(N/N=C/c1ccccc1Cl)C(=O)Nc1cccc(C(F)(F)F)c1
assay.value: 104% (inactive)

----------
Test system: COLO 205 colon
measurement.protocol: NCI-60 one-dose screen, 48 h
experimental.context: 10 µM unless noted
Procedure: Cells are grown in 96 well plates and exposed to the test compound for 48 hours. Compounds are tested at a single concentration, which is 10^-5 M for most compounds. The reported endpoint is percent growth (GI% or GIPRCNT), where numbers from 0 - 100% represent growth inhibition, and numbers from -100% - 0 represent cell death. For example, a value of 40 represents 60% growth inhibition. A value of 0 means no net growth occurred over the course of the experiment. […]
Compounds without any hit were thinned out: in the full panel of roughly 83,000, 20% have a hit. Active and inactive are the calls of the source. Rule for the calls: active = growth percent below 10; inactive = the rest.
Outcomes: active, inactive

molecule: CCOC(=O)C1=C(C)c2ccc(OC)c(OC)c2C1
assayed.system: COLO 205 colon
classification: inactive
--
molecule: O=C(CN1C(=O)/C(=C\c2ccc(Cl)cc2)SC1=S)Nc1ncc(Cc2ccc(Cl)cc2)s1
assayed.system: COLO 205 colon
classification: inactive
--
molecule: O=c1oc2ccc(F)cc2c(=O)n1-c1ccc(Cl)cc1F
assayed.system: COLO 205 colon
classification: inactive
--
molecule: O=c1oc2ccc(Br)cc2c(=O)n1-c1ccc(F)cc1F
assayed.system: COLO 205 colon
classification: inactive
--
molecule: O=C(O)c1cn(C2CC2)c2cc(N3CCN(C(=O)C[n+]4ccccc4)CC3)c(F)cc2c1=O
assayed.system: COLO 205 colon
classification: inactive
--
molecule: CCCc1c(C)c2sc(=O)[nH]c2[nH]c1=O
assayed.system: COLO 205 colon
classification: inactive
--
molecule: CCCCCCc1cc2cc(-c3csc(/C=C/c4ccccc4)n3)c(=O)oc2cc1O
assayed.system: COLO 205 colon
classification: active
--
molecule: O=C1Nc2ccccc2/C1=C/c1cccs1
assayed.system: COLO 205 colon
classification: inactive
--
molecule: CCOC(=O)c1sc(-c2ccc(OS(=O)(=O)c3ccccc3[N+](=O)[O-])c(C=O)c2)nc1C
assayed.system: COLO 205 colon
classification: inactive
--
molecule: COC(=O)c1cc2c(n1Cc1ccccc1)-c1oncc1CCC2
assayed.system: COLO 205 colon
classification: inactive
--
molecule: CCOc1cccc(/C=N/NC(=O)C(=O)Nc2cccc(C(F)(F)F)c2)c1O
assayed.system: COLO 205 colon
classification: inactive
--
molecule: CCOc1ccc2c(c1)CN(Cc1ccc(Cl)cc1)CO2
assayed.system: COLO 205 colon
classification: inactive
--
molecule: CCOC(=O)c1sc(-c2ccc(OS(=O)(=O)C[C@]34CCC(CC3=O)C4(C)C)c(C=O)c2)nc1C
assayed.system: COLO 205 colon
classification: active
--
molecule: CCCCCCn1c(=N)n(CC(O)COc2cccc(C)c2)c2ccccc21 (stereo unspecified)
assayed.system: COLO 205 colon
classification: active
--
molecule: COc1ccc(CSc2nnc(SCC(=O)Nc3ccc(Cl)cc3)s2)cc1
assayed.system: COLO 205 colon
classification: inactive
--
molecule: O=c1oc2ccc(I)cc2c(=O)n1-c1ccc(F)cc1F
assayed.system: COLO 205 colon
classification: inactive
--
molecule: CC(C)[C@H](NC(=O)Cn1cc(C(=O)O)nn1)C(=O)O
assayed.system: COLO 205 colon
classification: inactive
--
molecule: O=C(c1nc2ccccc2[nH]1)C1C(c2ccc(F)cc2)C2CC3CCCCC3N2[C@@]12C(=O)Nc1ccc(Cl)cc12 (stereo partly specified)
assayed.system: COLO 205 colon
classification: inactive
--
molecule: CC1(C)CC2(C)OC2C2(C1)N=NC(=Nc1ccccc1)O2 (stereo unspecified)
assayed.system: COLO 205 colon
classification: inactive
--
molecule: Cc1cc2c(c(C)c1Cl)C(=O)/C(=C/c1cccc([N+](=O)[O-])c1)O2
assayed.system: COLO 205 colon
classification: inactive
--
molecule: Cc1ccc(S(=O)(=O)c2c(COC(=O)c3cccc(C)c3)c(-c3ccccc3)nn2C)cc1
assayed.system: COLO 205 colon
classification: active
